Origin of values: patent US12269800B2

- assay_comment: Plasma Stability Assay of Example A3, human plasma
- measurement_parameters: % of prodrug compound remaining, 37° C., 240 min
result_type: Human Plasma Prodrug (%)

- C/C=C(\C)C(=O)OC1=C[C@@H]2N(C)CC[C@]2(c2ccc(OC)c(OC)c2)CC1: 0.4
- COc1ccc([C@@]23CCC(OC(=O)c4c(C)cccc4C)=C[C@@H]2N(C)CC3)cc1OC: 38
- C=C(C)C(=O)OC1=C[C@@H]2N(C)CC[C@]2(c2ccc(OC)c(OC)c2)CC1: 0.0
- COc1ccc([C@@]23CCC(OC(=O)C(C)(C)C)=C[C@@H]2N(C)CC3)cc1OC: 2.0

----------
- assay_comment: Plasma Stability Assay of Example A3, mouse plasma
- measurement_parameters: % of prodrug compound remaining, 37° C., 15 min
Recorded Mouse Plasma Prodrug (%), one value per entry.
result_type: Mouse Plasma Prodrug (%)

- COc1ccc([C@@]23CCC(OC(=O)C(c4ccccc4)c4ccccc4)=C[C@@H]2N(C)CC3)cc1OC: 6.2
- C=C(C)C(=O)OC1=C[C@@H]2N(C)CC[C@]2(c2ccc(OC)c(OC)c2)CC1: 5.3
- COc1ccc([C@@]23CCC(OC(=O)c4cccc(C)c4)=C[C@@H]2N(C)CC3)cc1OC: 33
- COc1ccc([C@@]23CCC(OC(=O)c4ccc(C(C)C)cc4)=C[C@@H]2N(C)CC3)cc1OC: 10
- COc1ccc([C@@]23CCC(OC(=O)c4ccc(C(F)(F)F)cc4)=C[C@@H]2N(C)CC3)cc1OC: 0.4

----------
- assay_comment: Hydrolysis Assay of Example A2, Condition 1 (SGF with pepsin, pH 1.5, 37° C.)
- Type: physicochemical
- measurement_parameters: SGF with pepsin pH 1.5, 37° C., 0.5 mM; time 4 h
result_type: Condition 1 Conversion (%)

• COc1ccc([C@@]23CC/C(=N/OC(C)(C)OC)C[C@@H]2N(C)CC3)cc1OC [Compound 219] = 0
• COc1ccc([C@]23CCN(C)[C@H]2CC2(CC3)OCC(COCc3ccccc3)O2)cc1OC (stereo partly drawn) [Compound 215] = 25.8
• COc1ccc([C@]23CCN(C)[C@H]2CC2(CC3)OCC(COc3ccccc3OC)O2)cc1OC (stereo partly drawn) [Compound 216] = 0
• COc1ccc([C@]23CCN(C)[C@H]2CC2(CC3)OCCS2)cc1OC (stereo partly drawn) [Compound 69] = 0
• COc1ccc([C@@]23CCC(=NOCC(=O)OC(C)(C)C)C[C@@H]2N(C)CC3)cc1OC [Compound 202] = 3.01
• COc1ccc([C@@]23CCC(=NNC(=O)CCCC(=O)O)C[C@@H]2N(C)CC3)cc1OC [Compound 246] = 100
• COc1cccc(C2COC3(CC[C@@]4(c5ccc(OC)c(OC)c5)CCN(C)[C@H]4C3)O2)c1 (stereo partly drawn) [Compound 111] = 0
• COc1ccc([C@@]23CCC(OC(=O)c4ccc(C(F)(F)F)cc4)=C[C@@H]2N(C)CC3)cc1OC [Compound 310] = 0
• COc1ccc([C@]23CCN(C)[C@H]2CC2(CC3)OCC(C34CC5CC(CC(C5)C3)C4)O2)cc1OC (stereo partly drawn) [Compound 281] = 0
• CCCCC(=O)OC1=C[C@@H]2N(C)CC[C@]2(c2ccc(OC)c(OC)c2)CC1 [Compound 268] = 0
• COc1ccc([C@]23CCN(C)[C@H]2CC2(CC3)Oc3ccccc3O2)cc1OC [Compound 300] = 0
• CCC(C)CC(=O)OC1=C[C@@H]2N(C)CC[C@]2(c2ccc(OC)c(OC)c2)CC1 (stereo partly drawn) [Compound 316] = 0
• COc1ccc([C@]23CCN(C)[C@H]2CC2(CC3)OC[C@H](c3cccnc3)O2)cc1OC (stereo partly drawn) [Compound 109] = 0
• COc1ccc([C@@]23CC/C(=N/NC(=O)Nc4ccccc4Cl)C[C@@H]2N(C)CC3)cc1OC [Compound 270] = 1
• COc1ccc([C@]23CCN(C)[C@H]2CC2(CC3)OC[C@@H](c3ccccc3)O2)cc1OC (stereo partly drawn) [Compound 081] = 0
• COc1ccc([C@@]23CC/C(=N\OC(C)(C)OC)C[C@@H]2N(C)CC3)cc1OC [Compound 204] = 0
• COc1ccc([C@@]23CCN(C)[C@@H]2CC2(CC3)OCCS2)cc1OC (stereo partly drawn) [Compound 070] = 0
• COc1ccc([C@]23CCN(C)[C@H]2CC2(CC3)OCC(C)O2)cc1OC (stereo partly drawn) [Compound 211] = 0
